Where these numbers come from: PubChem BioAssay (NCI)

Here, each record is paired with measured TGI data.
- Tested on: KM20L2 colon
- ASSAY_NOTES: NCI tumour cell line growth inhibition, 48 h

{"COMPOUND": "Cc1c2c(cc3c(=O)ccn(CCN(C)C)c13)c(=O)ccn2CCN(C)C", "MEASUREMENT_TARGET": "KM20L2 colon", "TGI": "20.8 µM"}
{"COMPOUND": "CC(=O)/C=C/c1ccc(C)cc1", "MEASUREMENT_TARGET": "KM20L2 colon", "TGI": "> 100 µM"}
{"COMPOUND": "NS(=O)(=O)c1ccc(NC(=O)c2cccc3cc4ccccc4nc23)cc1", "MEASUREMENT_TARGET": "KM20L2 colon", "TGI": "> 100 µM"}
{"COMPOUND": "CCOC(=O)/C(=C\\c1ccc[nH]1)C(=O)c1ccccc1", "MEASUREMENT_TARGET": "KM20L2 colon", "TGI": "> 100 µM"}
{"COMPOUND": "CC1(O)CCC2(C#N)CCC1C2O (stereo not drawn)", "MEASUREMENT_TARGET": "KM20L2 colon", "TGI": "> 100 µM"}
{"COMPOUND": "COc1cc(/C=C(\\OC(C)=O)c2ccc3c(c2)OCO3)cc(OC)c1OC", "MEASUREMENT_TARGET": "KM20L2 colon", "TGI": "> 100 µM"}
{"COMPOUND": "COc1ccc(-c2c(N)[n+]([O-])c3ccccc3[n+]2[O-])cc1OC", "MEASUREMENT_TARGET": "KM20L2 colon", "TGI": "> 100 µM"}
{"COMPOUND": "CC(C)CN(CC(C)C)C(=O)C1CCCC[C@@H]1C(=O)O (stereo partly drawn)", "MEASUREMENT_TARGET": "KM20L2 colon", "TGI": "> 100 µM"}
{"COMPOUND": "CCOP(=O)(OCC)C1=NC=CC=CC1n1c(-c2ccccc2)nn(CC)c1=O (stereo not drawn)", "MEASUREMENT_TARGET": "KM20L2 colon", "TGI": "> 100 µM"}
{"COMPOUND": "N#CC1CC2(C(=O)C1=O)c1ccccc1-c1ccccc12 (stereo not drawn)", "MEASUREMENT_TARGET": "KM20L2 colon", "TGI": "> 100 µM"}
{"COMPOUND": "NC1(C(=O)O)CCCC1", "MEASUREMENT_TARGET": "KM20L2 colon", "TGI": "> 625 µM"}
{"COMPOUND": "CC1C(=O)O[C@H]2C1CC[C@@]1(C)[C@H](O)CC[C@@]13C[C@]2(O)OO3 (stereo partly drawn)", "MEASUREMENT_TARGET": "KM20L2 colon", "TGI": "> 100 µM"}
{"COMPOUND": "O=C(c1ccc(Cl)cc1)c1ccc(OCCSCCCCCCCCCCSCCOc2ccc(C(=O)c3ccc(Cl)cc3)cc2)cc1", "MEASUREMENT_TARGET": "KM20L2 colon", "TGI": "> 100 µM"}

----------
Here, each record is paired with measured TGI data.
- Tested on: RXF 393 renal
- ASSAY_NOTES: NCI tumour cell line growth inhibition, 48 h

{"COMPOUND": "O=C1CCCC2=C1CC1=C(CCCC1=O)N2c1ccccc1", "TGI": "> 100 µM"}
{"COMPOUND": "Nc1ncnc2c1cnn2Cc1ccc(Cl)cc1", "TGI": "> 100 µM"}
{"COMPOUND": "CCOC(=O)C(O)(NC(=O)NC(O)(C(=O)OCC)C(F)(F)F)C(F)(F)F (stereo not drawn)", "TGI": "> 100 µM"}
{"COMPOUND": "Cc1ccc(Sc2sc(-c3ccccc3)nc2[P+](c2ccccc2)(c2ccccc2)c2ccccc2)cc1", "TGI": "1.38 µM"}
{"COMPOUND": "Cc1ccc(C(=O)Nc2ccc(S(=O)(=O)O)c3cc(S(=O)(=O)O)cc(S(=O)(=O)O)c23)cc1NC(=O)c1cccc(NC(=O)Nc2cccc(C(=O)Nc3cc(C(=O)Nc4ccc(S(=O)(=O)O)c5cc(S(=O)(=O)O)cc(S(=O)(=O)O)c45)ccc3C)c2)c1 (tested in a mixture with another compound)", "TGI": "> 50 µM"}
{"COMPOUND": "COc1ccc(N(/C=C/C(=O)C(F)(F)F)CC(=O)c2ccc(Cl)c(Cl)c2)cc1", "TGI": "> 100 µM"}
{"COMPOUND": "O=C(Nc1ccccc1)Nc1cccc(Oc2nnc(Cl)c3ccccc23)c1", "TGI": "6.24 µM"}
{"COMPOUND": "CSc1nc2c(=O)n(-c3ccccc3)c(=S)n(-c3ccccc3)c2s1", "TGI": "94.4 µM"}
